Target: MAPK2(h) (Homo sapiens, UniProt P28482)
Sequence (P28482 whole entry): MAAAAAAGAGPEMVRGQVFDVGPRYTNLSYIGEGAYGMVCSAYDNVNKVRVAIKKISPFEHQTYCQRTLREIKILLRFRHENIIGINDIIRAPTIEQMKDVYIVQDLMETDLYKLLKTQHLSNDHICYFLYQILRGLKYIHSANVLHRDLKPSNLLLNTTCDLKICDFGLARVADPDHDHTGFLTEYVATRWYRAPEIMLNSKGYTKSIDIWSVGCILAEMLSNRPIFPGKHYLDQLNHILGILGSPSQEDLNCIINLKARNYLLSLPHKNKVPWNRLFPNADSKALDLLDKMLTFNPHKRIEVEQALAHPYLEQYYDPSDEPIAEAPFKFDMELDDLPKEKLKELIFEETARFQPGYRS
Assay: Protein kinase selectivity panel
Format: biochemical
Conditions: 1.0 μM compound, 10 μM ATP
property: Activity at Protein Kinase Assays (% of control), MAPK2(h)

Query: Which value of Activity at Protein Kinase Assays (% of control), MAPK2(h) has been reported for O=C1NC(=O)C2=C1c1cn(c3ccccc13)CCCc1ccc(c(N3CCCC3)n1)CCCn1cc2c2ccccc21 in the records?
Response: 88 % of control

Query: Similarly, O=C1NC(=O)C2=C1c1cn(c3ccccc13)CCCc1cc(nc(N3CCCC3)c1)CCCn1cc2c2ccccc21 ?
Response: 92 % of control

Query: And what about the compound CN(C)c1nc2ccc1CCCCn1cc(c3ccccc31)C1=C(C(=O)NC1=O)c1cn(c3ccccc13)CCC2 ?
Response: 102 % of control

Query: And for CN(C)c1cc2cc(n1)CCCn1cc(c3ccccc31)C1=C(C(=O)NC1=O)c1cn(c3ccccc13)CCC2 ?
Response: 104 % of control
